Molecular target: T1, IL-2R on human primary T cells (human, UniProt P01589 22-272; P14784 27-551; P31785 23-369)
T1 sequence (looked up) 1: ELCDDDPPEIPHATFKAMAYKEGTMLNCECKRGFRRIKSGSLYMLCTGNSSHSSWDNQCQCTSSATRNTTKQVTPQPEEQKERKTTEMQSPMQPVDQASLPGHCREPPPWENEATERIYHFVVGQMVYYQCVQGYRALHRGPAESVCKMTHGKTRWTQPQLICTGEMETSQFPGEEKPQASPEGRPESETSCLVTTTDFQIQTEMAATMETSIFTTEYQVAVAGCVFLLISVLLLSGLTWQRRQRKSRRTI
T1 sequence (looked up) 2: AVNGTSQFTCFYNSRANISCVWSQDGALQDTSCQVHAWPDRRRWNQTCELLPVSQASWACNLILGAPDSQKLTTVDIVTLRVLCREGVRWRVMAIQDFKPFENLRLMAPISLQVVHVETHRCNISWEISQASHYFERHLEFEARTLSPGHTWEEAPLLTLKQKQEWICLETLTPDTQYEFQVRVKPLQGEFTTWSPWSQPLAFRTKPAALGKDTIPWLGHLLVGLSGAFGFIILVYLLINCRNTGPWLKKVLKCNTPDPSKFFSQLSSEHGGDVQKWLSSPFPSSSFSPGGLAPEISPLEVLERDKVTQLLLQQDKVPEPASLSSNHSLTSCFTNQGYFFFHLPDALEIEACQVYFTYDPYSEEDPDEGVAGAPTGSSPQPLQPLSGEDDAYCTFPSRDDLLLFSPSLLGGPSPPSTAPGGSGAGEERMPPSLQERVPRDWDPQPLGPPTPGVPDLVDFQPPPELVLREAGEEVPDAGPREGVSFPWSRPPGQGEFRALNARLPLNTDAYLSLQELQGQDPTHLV
T1 sequence (looked up) 3: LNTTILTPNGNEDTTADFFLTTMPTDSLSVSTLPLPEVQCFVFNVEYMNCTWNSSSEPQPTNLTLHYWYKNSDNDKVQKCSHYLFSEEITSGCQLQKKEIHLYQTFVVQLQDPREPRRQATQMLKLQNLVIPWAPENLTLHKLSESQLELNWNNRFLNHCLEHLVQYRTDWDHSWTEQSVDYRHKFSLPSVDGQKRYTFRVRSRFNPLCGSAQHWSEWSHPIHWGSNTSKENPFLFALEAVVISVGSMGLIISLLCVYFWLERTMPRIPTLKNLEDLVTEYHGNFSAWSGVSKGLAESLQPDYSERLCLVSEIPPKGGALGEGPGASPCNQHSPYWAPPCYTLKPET
Assay: cell-based or functional assay
ENDPOINT LABEL: CD8 naïve EC50 (nM), STAT5 phosphorylation

>>> result("SEQ ID NO 38 (ligand) APTSSSTKKTQLQLEHLLLDLQMILNGINNYKNPKLTRMLTFKFYMPKKATELKHLQCLEEELKPLEEALRLAPSKNFHLRPRDLISDINVIVLELKGSETTFMCEYADETATIVEFLNRWITFSQSIISTLT")
"10000 nM"
>>> result("SEQ ID NO 39 (ligand) APTSSSTKKTQLQLEHLLLDLQMILNGINNYKNPKLTRMLTFKFYMPKKATELKHLQCLEEELKPLEEVLRLAQSKNFHLRPRDLISDINVIVLELKGSETTFMCEYADETATIVEFLNRWITFSQSIISTLT")
"10000 nM"
>>> result("SEQ ID NO 36 (ligand) APTSSSTKKTQLQLEHLLLDLQMILNGINNHKNPKLTRMLTFKFYMPKKATELKHLQCLEEELKPLEEALNLAQSKNFHLRPRDLISDINVIVLELKGSETTFMCEYADETATIVEFLNRWITFSQSIISTLT")
"10000 nM"
>>> result("SEQ ID NO 20 (ligand) APTSSSTKKTQLQLEHLLLDLQMILNGINNHKNPKLTRMLTFKFYMPKKATELKHLQCLEEELKPLEEALRLAPSKNFHLRPRDLISNINVIVLELKGSETTFMCEYADETATIVEFLNRWITFSQSIISTLT")
"312 nM"
>>> result("SEQ ID NO 24 (ligand) APTSSSTKKTQLQLEHLLLDLQMILNGINNHKNPKLTRMLTFKFYMPKKATELKHLQCLEEELKPLEEVLRLAQSKNFHLRPRDLISDINVIVLELKGSETTFMCEYADETATIVEFLNRWITFSTSIISTLT")
"10000 nM"

Given the entry SEQ ID NO 28 (ligand) APTSSSTKKTQLQLEHLLLDLQMILNGINNHKNPRLTRMLTFKFYMPKKATELKHLQCLEEELKPLEEVLNLAPSKNFHLRPRDLISDINVIVLELKGSETTFMCEYADETATIVEFLNRWITFSQSIISTLT , report its measured CD8 naïve EC50 (nM), STAT5 phosphorylation. 4000 nM

What would you report for SEQ ID NO 31 (ligand) APTSSSTKKTQLQLEHLLLDLQMILNGINNYKNPKLTRMLTFKFYMPKKATELKHLQCLEEELKPLEEALNLAPSKNFHLRPRDLISDINVIVLELKGSETTFMCEYADETATIVEFLNRWITFSQSIISTLT ? 10000 nM
